pIC50: −log10 of the molar value.
Literature-derived pIC50 for UniProtKB P08253 follows.
Sequence (P08253 whole entry): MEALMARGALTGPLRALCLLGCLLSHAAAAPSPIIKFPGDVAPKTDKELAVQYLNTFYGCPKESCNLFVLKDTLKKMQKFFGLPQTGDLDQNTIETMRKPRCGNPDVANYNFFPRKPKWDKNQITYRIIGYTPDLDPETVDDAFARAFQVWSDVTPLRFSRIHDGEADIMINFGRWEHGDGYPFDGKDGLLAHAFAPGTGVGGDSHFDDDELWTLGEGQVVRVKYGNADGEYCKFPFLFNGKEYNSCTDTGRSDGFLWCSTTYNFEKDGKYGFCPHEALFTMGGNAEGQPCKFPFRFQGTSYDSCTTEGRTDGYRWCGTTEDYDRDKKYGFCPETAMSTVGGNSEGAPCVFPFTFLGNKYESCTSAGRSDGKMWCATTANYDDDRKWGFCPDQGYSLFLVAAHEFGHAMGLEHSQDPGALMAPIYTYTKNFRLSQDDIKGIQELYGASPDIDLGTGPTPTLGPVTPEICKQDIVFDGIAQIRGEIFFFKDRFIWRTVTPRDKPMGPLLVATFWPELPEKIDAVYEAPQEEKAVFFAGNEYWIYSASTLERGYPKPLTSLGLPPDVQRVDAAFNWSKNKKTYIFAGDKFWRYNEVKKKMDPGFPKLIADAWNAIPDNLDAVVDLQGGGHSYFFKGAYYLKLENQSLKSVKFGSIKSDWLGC

{"compound": "COc1ccc(S(=O)(=O)N(CC(=O)NO)CC(C)C)cc1", "pIC50": 7.89}
{"compound": "COc1c(CO)ccc2oc(C(=O)Nc3ccc(-c4ccc(S(=O)(=O)N[C@H](C(=O)O)C(C)C)cc4)cc3)c(C)c12", "pIC50": 5.85}
{"compound": "COc1ccc(CCC(=O)N2C[C@@H](NC(=O)c3cccnc3)C[C@H]2C(=O)NO)cc1OC", "pIC50": 7.92}
{"compound": "COC(=O)[C@@H]1CC2(CN1S(=O)(=O)c1ccccc1)OCCCCO2", "pIC50": 5.82}
{"compound": "COC(=O)[C@@H]1C[C@@H](O)CN1S(=O)(=O)c1ccccc1 (relative stereo)", "pIC50": 6.10}
{"compound": "CN(C(=O)c1ccccc1)C1CN[C@H](C(=O)N2CC=C(c3ccccc3)CC2)[C@@H](C(=O)NO)C1 (stereo partly specified)", "pIC50": 7.92}
